Values were extracted from ChEMBL document CHEMBL5584354.

test: Hemolytic activity in male Sprague-Dawley rat erythrocytes assessed as concentration required for 50% hemolysis incubated for 1 hr by absorbance based method; type: toxicity, cell-based, Erythrocyte
Non-standard residues stand in square brackets, D forms with d. Residues, ends and D or L forms follow the SMILES beside them. *: point of attachment. X1 = NC(=O)[C@H](Cc1c[nH]cn1)NC(=O)CNC(=O)[C@@H](N)CN*; Nspe = C[C@H](NCC(=O)O)c1ccccc1; Nphe = O=C(O)CNCc1ccccc1; Nlys = NCCCCNCC(=O)O
quantityName: HC50 at 1 h

C[C@@H](c1ccccc1)N(CC(N)=O)C(=O)CN(CCCCN)C(=O)CN(C(=O)CN(C(=O)CN(CCCCN)C(=O)CN(C(=O)CN(C(=O)CN(CCCCN)C(=O)CN(C(=O)CN(C(=O)CNCCCCN)[C@@H](C)c1ccccc1)[C@@H](C)c1ccccc1)[C@@H](C)c1ccccc1)[C@@H](C)c1ccccc1)[C@@H](C)c1ccccc1)[C@@H](C)c1ccccc1 (H-[Nlys][Nspe][Nspe][Nlys][Nspe][Nspe][Nlys][Nspe][Nspe][Nlys][Nspe]-NH2) = 28.3 µM
C[C@@H](c1ccccc1)N(CC(=O)N(CCCCN)CC(=O)N(CC(=O)N(CC(=O)N(CCCCN)CC(=O)N(CC(=O)N(CC(=O)N(CCCCN)CC(=O)N(CC(=O)N(CC(N)=O)Cc1ccccc1)Cc1ccccc1)Cc1ccccc1)Cc1ccccc1)Cc1ccccc1)Cc1ccccc1)C(=O)CN(Cc1ccccc1)C(=O)CN(CCCCN)C(=O)[C@H](Cc1c[nH]cn1)NC(=O)CNC(=O)CN (H-GGH[Nlys][Nphe][Nspe][Nlys][Nphe][Nphe][Nlys][Nphe][Nphe][Nlys][Nphe][Nphe]-NH2) = > 100 µM
C[C@@H](c1ccccc1)N(CC(=O)N(CCCCN)CC(=O)N(CC(=O)N(CC(=O)N(CCCCN)CC(=O)N(CC(=O)N(CC(=O)NC[C@H](N)C(=O)NCC(=O)N[C@@H](Cc1c[nH]cn1)C(N)=O)Cc1ccccc1)Cc1ccccc1)[C@@H](C)c1ccccc1)[C@@H](C)c1ccccc1)C(=O)CN(C(=O)CN(CCCCN)C(=O)CN(Cc1ccccc1)C(=O)CN(Cc1ccccc1)C(=O)CNCCCCN)[C@@H](C)c1ccccc1 (H-[Nlys][Nphe][Nphe][Nlys][Nspe][Nspe][Nlys][Nspe][Nspe][Nlys][Nphe][Nphe]-X1) = > 100 µM

###

experiment: Cytotoxicity against mouse RAW264.7 cells assessed as cell viability at 10 uM incubated for 24 hrs by […] relative to control; format: toxicity, cell-based; conditions: read-out: Activity
Non-standard residues stand in square brackets, D forms with d. Residues, ends and D or L forms follow the SMILES beside them. Gly(N(CH2)2(3-indolyl)) = O=C(O)CNCCc1c[nH]c2ccccc12; Nspe = C[C@H](NCC(=O)O)c1ccccc1; Nlys = NCCCCNCC(=O)O
quantityName: viability at 24 h, 10 µM (%)

C[C@@H](c1ccccc1)N(CC(=O)N(CCCCN)CC(=O)N(CCc1c[nH]c2ccccc12)CC(=O)N(CCc1c[nH]c2ccccc12)CC(N)=O)C(=O)CN(CCCCN)C(=O)CN(CCCCN)C(=O)CN(C(=O)CN(C(=O)CN(CCCCN)C(=O)CN(C(=O)CN(C(=O)CNCCCCN)[C@@H](C)c1ccccc1)[C@@H](C)c1ccccc1)[C@@H](C)c1ccccc1)[C@@H](C)c1ccccc1 (H-[Nlys][Nspe][Nspe][Nlys][Nspe][Nspe][Nlys][Nlys][Nspe][Nlys][Gly(N(CH2)2(3-indolyl))][Gly(N(CH2)2(3-indolyl))]-NH2) = 55.9
